tested on: K562; test: NCI tumour cell line growth inhibition, 48 h
Calls of active or inactive are those of the source. No stated cut-off is given here; in the data, active = GI50 up to about 1.1 µM and inactive = higher.
Outcomes: 1 (active), 0 (inactive)

molecule	target.or.system	class
Nc1nc(-c2ccc(Cl)c([N+](=O)[O-])c2)cs1	K562	0
COc1ccc2nc3ccc(OC)cc3c([S+]([O-])Cc3ccc([N+](=O)[O-])cc3)c2c1 (configuration not stated)	K562	0
COc1c(OC(C)=O)c(OC(C)=O)cc2c1-c1ccc(SC)c(=O)cc1C(NC(C)=O)CC2 (configuration not stated)	K562	1
O=C1c2c(Br)sc(Br)c2[C@@H](O)[C@H]1O	K562	0
CC(C)CCC[C@@H](C)[C@H]1CC[C@H]2C3=C[C@H](OS(=O)(=O)O)[C@@]4(O)C[C@@H](O)CC[C@]4(C)[C@@]3(O)CC[C@]12C	K562	0
CCOC(=O)C1=C(O)C(=O)c2ccccc2C1=O	K562	0
Nc1ccc(/N=N/c2ccc(-c3ccc(/N=N/c4c(S(=O)(=O)O)cc5cc(S(=O)(=O)O)c(/N=N/c6ccc([N+](=O)[O-])cc6)c(N)c5c4O)cc3)cc2)c2cc(S(=O)(=O)O)ccc12	K562	0
